Would you mind telling me the reported protein stability index of each entry?
B1: ZNF449 (parent)
chain: HKKKSPGEKPHRCPQCGKCFARKS

variants of: B1; assay: protein stability index of a GFP-peptide fusion (GPS, HEK-293T) (PSI 1-6); higher = more stable; conditions: c terminus: a fixed tail appended;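 note: lentivirally expressed fusions sorted by FACS into six bins by GFP to DsRed ratio, PSI derived from sequencing read proportions per bin multiplied by bin number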

Req: // protein stability index lookup, key: `K4S`
Resp: 3.14

Req: protein stability index lookup needed for `K2L` , thanks.
Resp: 3.41

Req: Look at this variant and give its reported protein stability index. `K3V`
Resp: 3.51

Req: Give the measured protein stability index of `A21Y` .
Resp: 3.27

Req: Item under review: `C16N` . Reported protein stability index?
Resp: 3.64

Req: I have this variant here, `P10L` , and I need its recorded protein stability index.
Resp: 4.06

Req: Report protein stability index for `S5V` please.
Resp: 2.77

Req: What value of protein stability index has been reported for the following variant? `G7T`
Resp: 3.58

Req: Given the entry `C19T` , report its measured protein stability index.
Resp: 3.44

Req: # query: protein stability index of entry `H11A`
Resp: 3.42

Req: What value of measured protein stability index is listed for `E8W` ?
Resp: 3.36

Req: Request the reported protein stability index associated with `H11T`
Resp: 3.49

Req: protein stability index lookup needed for `G7V` , thanks.
Resp: 3.76

Req: Query: protein stability index; subject: `K18C`
Resp: 3.29

Req: # lookup: protein stability index of `H1L`
Resp: 2.54

Req: For the variant `G17D` , what protein stability index is on record?
Resp: 3.86

Req: Looking for the measured protein stability index of `E8R` , can you help?
Resp: 3.99

Req: Which protein stability index value is on record for `E8L` ?
Resp: 3.01

Req: Given `K4G` , state its recorded protein stability index.
Resp: 3.13

Req: Request the reported protein stability index associated with `K3F`
Resp: 3.19

Req: Give the measured protein stability index of `K2W` .
Resp: 3.04
